Data origin: patent US20040087792A1

pKi values for the compounds below.
target: human tryptase
assay notes: Inhibition of human tryptase (equilibrium, chromogenic substrate tos-Gly-Pro-arg-pNA)
details: in the presence of substrate; heparin 0.1-50 μg/ml; cleavage monitored at 405 nm; read-out: Klapp (apparent dissociation constant Kiapp)
Where a name gives a salt, the structure may show the parent alone.
# log scale: pKi equals minus log10 of the concentration in mol/L

CCOC(=O)CN(CCNC(=O)OCC#Cc1ccc(C#CCOC(=O)NCCN(CC(=O)OCC)C(=O)CCc2ccc(CN)cc2)cc1)C(=O)CCc1ccc(CN)cc1 [Compound 1, dihydrochloride]
7.46

Okay, next one:
q: Item CCOC(=O)CN(CCNC(=O)OCC#CCOC(=O)NCCN(CC(=O)OCC)C(=O)CCc1ccc(CN)cc1)C(=O)CCc1ccc(CN)cc1 [Compound 3, dihydrochloride] has what recorded pKi?
a: 8.27
